Give Population Mitotic Cells (%) for every item shown.
# Tested on: HEK-293T
# Procedure Details: Multiplex assay against HEK293T
# Format: toxicity, cell-based
# Condition Context: human, 24 h, 10 µM, compound concentration 10 uM, replicate 1
Record the value in %, omitting the unit from your answer.

input: So what Population Mitotic Cells (%) did "Cn1cc(C(=O)OCC2CCN(CCNS(C)(=O)=O)CC2)c2ccccc21" get with HEK-293T?
output: 64

input: So what Population Mitotic Cells (%) did O=C(O)CCC/C=C\CC1C(O)CC(O)C1/C=C/C(O)COc1cccc(Cl)c1 (configuration not stated) [CLOPROSTENOL] get with HEK-293T?
output: 54

input: So what Population Mitotic Cells (%) did CN1C[C@H](C(=O)N[C@]2(C)O[C@@]3(O)[C@@H]4CCCN4C(=O)[C@H](Cc4ccccc4)N3C2=O)C[C@@H]2c3cccc4[nH]cc(c34)C[C@H]21.CS(=O)(=O)O [DIHYDROERGOTAMINE MESYLATE] get with HEK-293T?
output: 72

input: So what Population Mitotic Cells (%) did O=c1ccc2ccc(OCCCCN3CCN(c4cccc5sccc45)CC3)cc2[nH]1 [BREXPIPRAZOLE] get with HEK-293T?
output: 8

input: So what Population Mitotic Cells (%) did "COCCn1c(C)c(C)s/c1=N\C(=O)C1C(C)(C)C1(C)C" get with HEK-293T?
output: 28

input: So what Population Mitotic Cells (%) did Cc1cc(NC(=O)NCCN2CCC(O)(Cc3ccccc3)CC2)c2ccccc2n1 [PALOSURAN] get with HEK-293T?
output: 64

input: So what Population Mitotic Cells (%) did Cc1ccc(OCC(O)C(C)NC(C)C)c2c1CCC2.Cl (configuration not stated) get with HEK-293T?
output: 53

input: So what Population Mitotic Cells (%) did CC(C)(C)c1ccc(CSc2cnn(C(C)(C)C)c(=O)c2Cl)cc1 [PYRIDABEN] get with HEK-293T?
output: 55

input: So what Population Mitotic Cells (%) did "COc1cc2nc(N3CCN(C(=O)COc4c(OC)cccc4C(C)C)CC3)nc(N)c2cc1OC.Cl.Cl" get with HEK-293T?
output: 57

input: So what Population Mitotic Cells (%) did "O=C(Nc1cc(-c2ccccc2)nn1-c1ccccc1F)c1ccc([N+](=O)[O-])cc1" get with HEK-293T?
output: 84

input: So what Population Mitotic Cells (%) did "Nc1nc(-c2ccco2)c2cnn(Cc3ccccc3F)c2n1" get with HEK-293T?
output: 61

input: So what Population Mitotic Cells (%) did Cc1cc(-c2ccc3c(c2)CC[C@H]3N2CC3(CCN(C(=O)Cc4cn5cc(C)sc5n4)CC3)C2)ncn1 [PF-5190457] get with HEK-293T?
output: 74

input: So what Population Mitotic Cells (%) did COc1ccc2c(c1OCc1ccccc1)C[C@@H](C(=O)O)N(C(=O)C(c1ccccc1)c1ccccc1)C2 [OLODANRIGAN] get with HEK-293T?
output: 59

input: So what Population Mitotic Cells (%) did CCC(=O)OCC(=O)[C@@]1(OC(=O)CC)[C@@H](C)C[C@H]2[C@@H]3CCC4=CC(=O)C=C[C@]4(C)[C@@]3(Cl)[C@@H](O)C[C@@]21C [BECLOMETHASONE DIPROPIONATE] get with HEK-293T?
output: 44

input: So what Population Mitotic Cells (%) did CCCCCCNC(=O)Nc1ccc(S(=O)(=O)Nc2ccc(CCNC[C@H](O)COc3ccc(O)cc3)cc2)cc1 [L-755507] get with HEK-293T?
output: 73

input: So what Population Mitotic Cells (%) did "C[C@H](NC(=O)CNC(=O)c1cccc(Cl)c1)c1ccccc1" get with HEK-293T?
output: 56

input: So what Population Mitotic Cells (%) did "COc1cc(OC2CCN(C(C)=O)CC2)ccc1C(=O)N1CCC(N2C(=O)OCc3ccccc32)CC1" get with HEK-293T?
output: 68
